The measurements presented in this section are drawn from patent US20210330611A1.

System: fibrin- and LPS-induced microglia activation
Assay Details: cells
Format: cell-based, rat
Counter-ions that a name gives are not always drawn.
Endpoint: Quadrant (FIG. 5b)

# Molecule, Value Observed
data = [
    ("OCCN1CCN(CCCN2c3ccccc3Sc3ccc(C(F)(F)F)cc32)CC1 [Fluphenazine]", "Q4"),
    ("NC1=NCC2c3ccccc3Cc3ccccc3N12 (stereo not shown) [Epinastine]", "Q4"),
    ("NC(=O)c1ncn([C@@H]2O[C@H](CO)[C@@H](O)[C@H]2O)n1 [Ribavirin, reference compound]", "Q2"),
    ("Oc1ccc(Cl)cc1 [Parachlorophenol]", "Q4"),
    ("NC(N)=Nc1nc(CSCCC(N)=NS(N)(=O)=O)cs1 [Famotidine]", "Q4"),
    ("O=C1NS(=O)(=O)c2ccccc21 [Saccharin]", "Q4"),
    ("CN(C)CCC=C1c2ccccc2CCc2ccccc21 [Amitriptyline]", "Q4"),
    ("O=C(CCBr)N1CCN(C(=O)CCBr)CC1 [Pipobroman]", "Q4"),
    ("COc1cc2ncnc(Nc3ccc(F)c(Cl)c3)c2cc1OCCCN1CCOCC1 [Gefitinib]", "Q4"),
    ("C[C@]12CC[C@@H]3c4ccc(O)cc4CC[C@H]3[C@@H]1C[C@@H](O)[C@@H]2O [Estriol]", "Q4"),
]

Data request: Reported Quadrant (FIG. 5b) for CN(C)CCOC(c1ccccc1)c1ccccc1 [Diphenhydramine] : what is it?
Data returned: Q4

Data request: Similarly, COc1cc2c(c(OC)c1OC)-c1ccc(OC)c(=O)cc1[C@@H](NC(C)=O)CC2 [Colchicine, reference compound] ?
Data returned: Q2

Data request: Similarly, O=C(O)CCCC[C@@H]1SC[C@@H]2NC(=O)N[C@@H]21 [Biotin] ?
Data returned: Q4

Data request: Similarly, Cc1c(-c2cnccn2)ssc1=S [Oltipraz] ?
Data returned: Q4

Data request: Similarly, Cc1cn([C@H]2C[C@H](N=[N+]=[N-])[C@@H](CO)O2)c(=O)[nH]c1=O [Zidovudine] ?
Data returned: Q4

Data request: Similarly, O=C(O)c1ccccc1 [Benzoic Acid] ?
Data returned: Q4

Data request: Similarly, O=C(CCCN1CC=C(n2c(=O)[nH]c3ccccc32)CC1)c1ccc(F)cc1 [Droperidol] ?
Data returned: Q4

Data request: Similarly, Cc1ccc(O)c([C@H](CCN(C(C)C)C(C)C)c2ccccc2)c1 [Tolterodine] ?
Data returned: Q4

Data request: Similarly, c1ccc(C2CN3CCSC3=N2)cc1 (stereo not shown) [Tetramizole Hydrochloride] ?
Data returned: Q2

Data request: Similarly, CC(C)c1c(C(=O)Nc2ccccc2)c(-c2ccccc2)c(-c2ccc(F)cc2)n1CC[C@@H](O)C[C@@H](O)CC(=O)[O-].CC(C)c1c(C(=O)Nc2ccccc2)c(-c2ccccc2)c(-c2ccc(F)cc2)n1CC[C@@H](O)C[C@@H](O)CC(=O)[O-].[Ca+2] [Atorvastatin calcium, reference compound] ?
Data returned: Q2

Data request: Similarly, O=C(O)CN1C(=O)c2cccc3cccc(c23)C1=O [Alrestatin] ?
Data returned: Q4

Data request: Similarly, Cc1ccc(-c2nc3ccc(C)cn3c2CC(=O)N(C)C)cc1 [Zolpidem, Zolpidem Tartrate] ?
Data returned: Q4

Data request: Similarly, CN(C)CCCN1c2ccccc2CCc2ccc(Cl)cc21 [Clomipramine] ?
Data returned: Q4

Data request: Similarly, OC[C@@H](O)[C@H]1O[C@@H]2O[C@H](C(Cl)(Cl)Cl)O[C@@H]2[C@H]1O [Chloralose] ?
Data returned: Q4
